Measured values drawn from the supplement of paper PMC11246515 for this set.

Assay: total protein half-life in vivo (active degradation + dilution); higher = more stable protein
Conditions: wild type E. coli NCM3722; growth: P-lim chemostat; doubling time 12 h
value kind: total protein half-life in vivo (h)
Numbers only here, please. The scale is h.

So what does the record say about total protein half-life in vivo for MASQLTDAFARKFYYLRLSITDVCNFRCTYCLPDGYKPSGVTNKGFLTVDEIRRVTRAFARLGTEKVRLTGGEPSLRRDFTDIIAAVRENDAIRQIAVTTNGYRLERDVASWRDAGLTGINVSVDSLDARQFHAITGQDKFNQVMAGIDAAFEAGFEKVKVNTVLMRDVNHHQLDTFLNWIQHRPIQLRFIELMETGEGSELFRKHHISGQVLRDELLRRGWIHQLRQRSDGPAQVFCHPDYAGEIGLIMPYEKDFCATCNRLRVSSIGKLHLCLFGEGGVNLRDLLEDDTQQQALEARISAALREKKQTHFLHQNNTGITQNLSYIGG ?
2.39

---

Give total protein half-life in vivo for every item shown.
Assay: total protein half-life in vivo (active degradation + dilution); higher = more stable protein
Details: E. coli NCM3722 delta-clpP delta-lon delta-hslV; growth: N-lim chemostat; doubling time 6 h
Numbers only here, please. The scale is h.

So what does the record say about total protein half-life in vivo for MRMNMSDFATFFAVARNQSFRAAGDELGLSSSAISHSIKTLEQRLKIRLFNRTTRSVSLTEAGSNLYERLRPAFDEIQIMLDEMNDFRLTPTGTLKINAARVAARIFLMSLLVGFTREYPDIKVELTTDDSLVDIVQQGFDAGVRLSCIVEKDMISVAIGPPVKLCVAATPEYFARYGKPRHPHDLLNHQCVVFRYPSGKPFHWQFAKELEIAVAGNIILDDVDAELEAVLMGAGIGYLLYEQIKEYLDTGRLECVLEDWSTERPGFQIYYPNRQYMSCGLRAFLDYVKTGQICQSQRHRPQ ?
5.54

So what does the record say about total protein half-life in vivo for MSLTLTLTGTGGAQGVPAWGCECAACARARRSPQYRRQPCSGVVKFNDAITLIDAGLHDLADRWSPGSFQQFLLTHYHMDHVQGLFPLRWGVGDPIPVYGPPDEQGCDDLFKHPGLLDFSHTVEPFVVFDLQGLQVTPLPLNHSKLTFGYLLETAHSRVAWLSDTAGLPEKTLKFLRNNQPQVMVMDCSHPPRADAPRNHCDLNTVLALNQVIRSPRVILTHISHQFDAWLMENALPSGFEVGFDGMEIGVA ?
6.78

So what does the record say about total protein half-life in vivo for MTVQDYLLKFRKISSLESLEKLYDHLNYTLTDDQELINMYRAADHRRAELVSGGRLFDLGQVPKSVWHYVQ ?
6.59

So what does the record say about total protein half-life in vivo for MSNKNVNVRKSQEITFCLLAGILMFMAMMVAGRAEAGVALGATRVIYPAGQKQEQLAVTNNDENSTYLIQSWVENADGVKDGRFIVTPPLFAMKGKKENTLRILDATNNQLPQDRESLFWMNVKAIPSMDKSKLTENTLQLAIISRIKLYYRPAKLALPPDQAAEKLRFRRSANSLTLINPTPYYLTVTELNAGTRVLENALVPPMGESTVKLPSDAGSNITYRTINDYGALTPKMTGVME ?
4.77

So what does the record say about total protein half-life in vivo for MAQLYFYYSAMNAGKSTALLQSSYNYQERGMRTVVYTAEIDDRFGAGKVSSRIGLSSPAKLFNQNSSLFDEIRAEHEQQAIHCVLVDECQFLTRQQVYELSEVVDQLDIPVLCYGLRTDFRGELFIGSQYLLAWSDKLVELKTICFCGRKASMVLRLDQAGRPYNEGEQVVIGGNERYVSVCRKHYKEALQVDSLTAIQERHRHD ?
4.73

So what does the record say about total protein half-life in vivo for MSAGSPKFTVRRIAALSLVSLWLAGCSDTSNPPAPVSSVNGNAPANTNSGMLITPPPKMGTTSTAQQPQIQPVQQPQIQATQQPQIQPVQPVAQQPVQMENGRIVYNRQYGNIPKGSYSGSTYTVKKGDTLFYIAWITGNDFRDLAQRNNIQAPYALNVGQTLQVGNASGTPITGGNAITQADAAEQGVVIKPAQNSTVAVASQPTITYSESSGEQSANKMLPNNKPTATTVTAPVTVPTASTTEPTVSSTSTSTPISTWRWPTEGKVIETFGASEGGNKGIDIAGSKGQAIIATADGRVVYAGNALRGYGNLIIIKHNDDYLSAYAHNDTMLVREQQEVKAGQKIATMGSTGTSSTRLHFEIRYKGKSVNPLRYLPQR [P0ADA3] ?
5.97
